meta.source: paper PMC3728731

target: TbGSK3 (Trypanosoma brucei brucei, UniProt Q388M1); assay: Mechanism of inhibition of TbGSK3; format: biochemical
Sequence (Q388M1 whole entry): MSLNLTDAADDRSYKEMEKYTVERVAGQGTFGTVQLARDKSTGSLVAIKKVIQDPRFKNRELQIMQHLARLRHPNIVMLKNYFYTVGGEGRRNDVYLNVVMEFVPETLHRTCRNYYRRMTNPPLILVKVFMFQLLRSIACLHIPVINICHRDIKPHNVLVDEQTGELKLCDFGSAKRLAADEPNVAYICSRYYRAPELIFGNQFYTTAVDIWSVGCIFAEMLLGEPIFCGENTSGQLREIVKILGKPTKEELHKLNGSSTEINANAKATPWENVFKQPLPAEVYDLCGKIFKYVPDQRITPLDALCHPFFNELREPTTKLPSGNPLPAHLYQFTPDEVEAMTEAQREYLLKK
Reported Ki values follow for various compounds
# unit: nM | format: bare number

Exercise: Return Ki for the following compound: "Nc1nc(NC2CCCCC2)sc1C(=O)c1ccccc1"
Solution: 250

Kindly review the next compound as well.
Exercise: Please report the measured Ki for "Nc1nc(Nc2ccccc2)sc1C(=O)c1c(F)cccc1F"
Solution: 50
